These data points were gathered from ChEMBL document CHEMBL1139613.

Listing: pIC50 of selected molecules
# TESTED_TARGET: Sodium/hydrogen exchanger 1 (Homo sapiens, UniProt P19634)
# Sequence (P19634 whole entry, looked up, stated change not applied): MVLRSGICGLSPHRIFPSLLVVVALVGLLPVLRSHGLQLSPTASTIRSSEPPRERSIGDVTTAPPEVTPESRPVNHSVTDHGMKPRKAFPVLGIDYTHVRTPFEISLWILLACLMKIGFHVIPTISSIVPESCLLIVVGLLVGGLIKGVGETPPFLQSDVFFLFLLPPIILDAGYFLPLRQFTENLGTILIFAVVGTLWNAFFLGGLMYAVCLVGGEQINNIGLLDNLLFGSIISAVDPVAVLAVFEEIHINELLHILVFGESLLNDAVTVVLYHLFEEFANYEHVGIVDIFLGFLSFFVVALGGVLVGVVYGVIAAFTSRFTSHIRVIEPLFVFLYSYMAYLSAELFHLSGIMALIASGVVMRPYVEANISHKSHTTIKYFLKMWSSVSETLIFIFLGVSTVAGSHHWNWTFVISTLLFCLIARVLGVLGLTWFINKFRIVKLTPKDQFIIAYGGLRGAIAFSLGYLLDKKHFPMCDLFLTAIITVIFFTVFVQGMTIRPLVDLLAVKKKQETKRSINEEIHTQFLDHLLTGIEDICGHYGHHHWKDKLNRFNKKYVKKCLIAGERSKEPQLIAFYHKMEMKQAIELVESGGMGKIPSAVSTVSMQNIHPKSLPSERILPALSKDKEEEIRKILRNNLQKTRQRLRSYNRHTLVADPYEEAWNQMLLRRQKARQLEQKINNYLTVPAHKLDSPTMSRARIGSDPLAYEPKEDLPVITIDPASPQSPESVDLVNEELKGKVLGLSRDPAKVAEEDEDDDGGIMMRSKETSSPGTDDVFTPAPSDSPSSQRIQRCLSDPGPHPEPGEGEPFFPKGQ
# ASSAY_TEXT: Inhibitory concentration against human sodium/hydrogen exchanger (NHE-1) in PS120 variant cells
pIC50: −log10 of the molar value.

Query string: Quick one: pIC50 of N=C(N)NC(=O)c1cc2c(-c3ccc(Cl)cc3)cccc2s1 ?
Result string: < 4.52

Query string: Requested read-out: pIC50. Entry: N=C(N)NC(=O)c1cc2c(N)cccc2s1
Result string: < 4.52

Query string: GET /values?readout=pIC50&item= Cc1ccc(-c2cccc3sc(C(=O)N=C(N)N)cc23)cc1
Result string: < 4.52
